Quick reference for Geometric Mean Group Live Tick Counts among some compounds
Test system: adult brown tick (Rhipicephalus sanguineus)
Assay: Assay 5: adult brown tick infestations on dogs
Assay type: in vivo, Rhipicephalus sanguineus on beagle dogs
Conditions: 10 mg/kg topical spot-on, Day 7, R. sanguineus
Give your answer as a number; write no unit.

compound	quantity name	obs value
CC[C@H]1CCC[C@H](NC(=O)c2cc(C)on2)[C@@H](C)C(=O)C2=C[C@@H]3[C@@H](C=C[C@@H]4C[C@@H](O[C@@H]5O[C@@H](C)[C@H](OC)C(OC)[C@H]5OC)C[C@@H]34)[C@@H]2CC(=O)O1 (stereo partly shown)	Geometric Mean Group Live Tick Counts	0.73
CC[C@H]1CCC[C@H](NC(=O)c2ccco2)[C@@H](C)C(=O)C2=C[C@@H]3[C@@H](C=C[C@@H]4C[C@@H](O[C@@H]5O[C@@H](C)[C@H](OC)C(OC)[C@H]5OC)C[C@@H]34)[C@@H]2CC(=O)O1 (stereo partly shown)	Geometric Mean Group Live Tick Counts	0.00
CC[C@H]1CCC[C@H](NC(=O)c2ccncc2)[C@@H](C)C(=O)C2=C[C@@H]3[C@@H](C=C[C@@H]4C[C@@H](O[C@@H]5O[C@@H](C)[C@H](OC)C(OC)[C@H]5OC)C[C@@H]34)[C@@H]2CC(=O)O1 (stereo partly shown)	Geometric Mean Group Live Tick Counts	3.23

Lab note: next compound to report on.
Asked: Answer with the recorded Geometric Mean Group Live Tick Counts of CC[C@H]1CCC[C@H](NC(=O)c2ccncn2)[C@@H](C)C(=O)C2=C[C@@H]3[C@@H](C=C[C@@H]4C[C@@H](O[C@@H]5O[C@@H](C)[C@H](OC)C(OC)[C@H]5OC)C[C@@H]34)[C@@H]2CC(=O)O1 (stereo partly shown) only.
Given back: 0.19

====

Tested on: adult brown tick (Rhipicephalus sanguineus)
Test: Assay 5: adult brown tick infestations on dogs
Type: in vivo, Rhipicephalus sanguineus on beagle dogs
Details: 10 mg/kg topical spot-on, Day 7, R. sanguineus
quantity name: GM percent efficacy

compound	obs value
CC[C@H]1CCC[C@H](NC(=O)c2ccco2)[C@@H](C)C(=O)C2=C[C@@H]3[C@@H](C=C[C@@H]4C[C@@H](O[C@@H]5O[C@@H](C)[C@H](OC)C(OC)[C@H]5OC)C[C@@H]34)[C@@H]2CC(=O)O1 (stereo partly shown) [Example 1]	(100)

====

Quick reference for Geometric Mean Group Live Tick Counts among some compounds
Test system: adult brown tick (Rhipicephalus sanguineus)
Assay: Assay 5: adult brown tick infestations on dogs
Assay type: in vivo, Rhipicephalus sanguineus on beagle dogs
Details: 10 mg/kg topical spot-on, Day 14, R. sanguineus

compound	obs value
CC[C@H]1CCC[C@H](NC(=O)c2ccco2)[C@@H](C)C(=O)C2=C[C@@H]3[C@@H](C=C[C@@H]4C[C@@H](O[C@@H]5O[C@@H](C)[C@H](OC)C(OC)[C@H]5OC)C[C@@H]34)[C@@H]2CC(=O)O1 (stereo partly shown) [Example 1]	0.57
CC[C@H]1CCC[C@H](NC(=O)c2cc(C)on2)[C@@H](C)C(=O)C2=C[C@@H]3[C@@H](C=C[C@@H]4C[C@@H](O[C@@H]5O[C@@H](C)[C@H](OC)C(OC)[C@H]5OC)C[C@@H]34)[C@@H]2CC(=O)O1 (stereo partly shown) [Example 4]	3.86
CC[C@H]1CCC[C@H](NC(=O)c2ccncn2)[C@@H](C)C(=O)C2=C[C@@H]3[C@@H](C=C[C@@H]4C[C@@H](O[C@@H]5O[C@@H](C)[C@H](OC)C(OC)[C@H]5OC)C[C@@H]34)[C@@H]2CC(=O)O1 (stereo partly shown) [Example 2]	5.82

Asked: Answer with the recorded Geometric Mean Group Live Tick Counts of CC[C@H]1CCC[C@H](NC(=O)c2ccncc2)[C@@H](C)C(=O)C2=C[C@@H]3[C@@H](C=C[C@@H]4C[C@@H](O[C@@H]5O[C@@H](C)[C@H](OC)C(OC)[C@H]5OC)C[C@@H]34)[C@@H]2CC(=O)O1 (stereo partly shown) [Example 3] only.
Given back: 5.12

Origin of measurements: patent US20160115189A1
